# testedSystem: T1, naked peptide SMEDYVNFNF (human)
# T1 peptide: SMEDYVNFNF
# assay: ELISA naked peptide; scFv 1 ug/mL; repII
measure: OD450 (OD)
// units = OD; emit number, no label

| binder | OD450 (OD) |
| --- | --- |
| Comparative antibody 2 (Comp-2) scFv, 243LO326 (VH SEQ ID NO: 51 and VL SEQ ID NO: 52 of WO 2022/195028 A2), His-tagged (scFv) scFv: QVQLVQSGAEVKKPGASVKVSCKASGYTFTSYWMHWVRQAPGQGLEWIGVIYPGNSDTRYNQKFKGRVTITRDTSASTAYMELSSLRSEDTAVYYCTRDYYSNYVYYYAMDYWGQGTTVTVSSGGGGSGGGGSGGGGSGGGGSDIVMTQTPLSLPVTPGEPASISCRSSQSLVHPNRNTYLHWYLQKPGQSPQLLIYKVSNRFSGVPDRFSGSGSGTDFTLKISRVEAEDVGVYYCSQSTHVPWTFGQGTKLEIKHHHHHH | 0.03 |
| CCR9_HUM2 scFv (humanized anti-CCR9 scFv, SEQ ID NO: 17 with C-terminal 6xHis tag) (scFv) scFv: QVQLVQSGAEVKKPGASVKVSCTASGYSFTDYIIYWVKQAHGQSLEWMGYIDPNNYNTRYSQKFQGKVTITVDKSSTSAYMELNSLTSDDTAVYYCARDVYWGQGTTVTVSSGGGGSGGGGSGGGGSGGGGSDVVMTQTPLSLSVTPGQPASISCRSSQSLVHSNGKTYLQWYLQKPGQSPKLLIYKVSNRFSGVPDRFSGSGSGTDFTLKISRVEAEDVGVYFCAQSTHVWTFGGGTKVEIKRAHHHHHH | 1.48 |
| Comparative antibody 3 (Comp-3) scFv, SR_92R (Somovilla-Crespo et al. 2018), His-tagged (scFv) scFv: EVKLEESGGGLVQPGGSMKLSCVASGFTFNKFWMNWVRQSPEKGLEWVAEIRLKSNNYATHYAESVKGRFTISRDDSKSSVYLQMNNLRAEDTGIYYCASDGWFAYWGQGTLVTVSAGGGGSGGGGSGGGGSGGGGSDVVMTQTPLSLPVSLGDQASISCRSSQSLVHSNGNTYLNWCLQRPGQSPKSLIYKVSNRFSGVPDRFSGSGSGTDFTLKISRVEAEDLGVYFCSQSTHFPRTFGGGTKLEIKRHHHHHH | 0.07 |

Below: the item to evaluate.
Asked: Using the record for Comparative antibody 1 (Comp-1) scFv, SEQ ID NO: 10 from WO2023/037125 A1, His-tagged (scFv) scFv: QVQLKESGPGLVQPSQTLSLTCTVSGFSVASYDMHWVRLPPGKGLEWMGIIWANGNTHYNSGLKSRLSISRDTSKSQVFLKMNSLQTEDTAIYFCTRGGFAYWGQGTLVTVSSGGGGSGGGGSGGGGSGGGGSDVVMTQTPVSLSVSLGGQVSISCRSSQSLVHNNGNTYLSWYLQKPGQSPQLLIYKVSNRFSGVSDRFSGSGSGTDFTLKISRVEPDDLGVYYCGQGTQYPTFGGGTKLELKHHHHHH , report its OD450.
Given back: 0.02
